# TEST TARGET: thrombin (Bos taurus)
# Construct: clotting of bovine fibrinogen
# METHOD SUMMARY: fibrinogen coagulation time (concentration required to prolong the coagulation time by a factor of two)
# Format: biochemical
# CONDITION INFO: bovine fibrinogen, thrombin 5 units/ml, borate saline buffer pH 7.4, 25° C; control 50-55 seconds prolonged to 100-110 seconds
Mark each entry MET if its IC (2-fold clotting time) sits below 2 µM, and NOT MET for all others.

>>> df
                                   compound  class_name
0  CCOC(=O)CCN(CC(=O)O)C(=O)[C@H](CCCNC(=N)N)NS(=O)(=O)c1ccc2cc(OC)c(OC)cc2c1     NOT MET
1  COc1ccc2cc(S(=O)(=O)N[C@@H](CCCNC(=N)N)C(=O)N(CCC(=O)O)Cc3ccccc3)ccc2c1     NOT MET
2  CCCCN(CC(=O)O)C(=O)[C@H](CCCNC(=N)N)NS(=O)(=O)c1ccc2ccc(C)cc2c1         MET
3  Cc1ccc2ccc(S(=O)(=O)N[C@@H](CCCNC(=N)N)C(=O)N3CCC(C)CC3C(=O)O)cc2c1 (stereo partly shown)         MET
4  COc1ccc2ccc(S(=O)(=O)N[C@@H](CCCNC(=N)N)C(=O)N(C)C(Cc3ccccc3)C(=O)O)cc2c1 (stereo partly shown)     NOT MET
5  COc1ccc2ccc(S(=O)(=O)N[C@@H](CCCNC(=N)N)C(=O)N(CC[S+](C)[O-])CC(=O)O)cc2c1 (stereo partly shown)     NOT MET
6  COc1ccc2ccc(S(=O)(=O)N[C@@H](CCCNC(=N)N)C(=O)N(CCSC)CC(=O)O)cc2c1         MET
7  COCCN(CC(=O)O)C(=O)[C@H](CCCNC(=N)N)NS(=O)(=O)c1cccc2c1CCCC2     NOT MET
8  COCCN(CC(=O)Oc1cccc(C)c1)C(=O)[C@H](CCCNC(=N)N)NS(=O)(=O)c1ccc2cc(OC)c(OC)cc2c1     NOT MET

###

# TEST TARGET: thrombin (Bos taurus, UniProt P00735)
# Construct: clotting of bovine fibrinogen
# METHOD SUMMARY: fibrinogen coagulation time (concentration required to prolong the coagulation time by a factor of two)
# Format: biochemical
# CONDITION INFO: bovine fibrinogen, thrombin 5 units/ml, borate saline buffer pH 7.4, 25° C; control 50-55 seconds prolonged to 100-110 seconds
Mark each entry label 1 if its IC (2-fold clotting time) sits below 10 µM, and label 0 for all others.

In [3]: df
Out[3]:
                                    compound  class_name
 0  COc1ccc2cc(S(=O)(=O)N[C@@H](CCCNC(=N)N)C(=O)N(CC(=O)O)Cc3ccccc3)cc(OC)c2c1     label 1
 1  COc1ccc2ccc(S(=O)(=O)N[C@@H](CCCNC(=N)N)C(=O)N(CC(=O)O)Cc3ccco3)cc2c1     label 1
 2  COCCN(CC(=O)O)C(=O)[C@H](CCCNC(=N)N)NS(=O)(=O)c1cccc2ccc(C)cc12     label 0
 3  COc1cc2ccc(S(=O)(=O)N[C@@H](CCCNC(=N)N)C(=O)N3CCCC[C@H]3C(=O)O)cc2cc1OC     label 0
 4  COCCN(C(=O)[C@H](CCCNC(=N)N)NS(=O)(=O)c1ccc2cc(OC)c(OC)cc2c1)C(C)C(=O)O (stereo partly shown)     label 1
 5  CCCCN(CC(=O)O)C(=O)[C@H](CCCNC(=N)N)NS(=O)(=O)c1ccc2cc(OC)ccc2c1     label 1
 6  COc1cc2ccc(S(=O)(=O)N[C@@H](CCCNC(=N)N)C(=O)N(C)C(Cc3ccccc3)C(=O)O)cc2cc1OC (stereo partly shown)     label 1
 7  Cc1ccc2ccc(S(=O)(=O)N[C@@H](CCCNC(=N)N)C(=O)N(CC(=O)O)CC3CCCCC3)cc2c1     label 0
 8  N=C(N)NCCC[C@H](NS(=O)(=O)c1ccc2c(c1)CCCC2)C(=O)N(CC(=O)O)Cc1ccccc1     label 0
 9  COc1cc2ccc(S(=O)(=O)N[C@@H](CCCNC(=N)N)C(=O)N(CC(=O)O)CC(C)C)cc2cc1OC     label 1
10  CCCN(CC(=O)O)C(=O)[C@H](CCCNC(=N)N)NS(=O)(=O)c1ccc2cc(OC)c(OC)cc2c1     label 1
